# Lookup of reported IC50 keyed by entry
- system: MOZ-KAT6A (Homo sapiens, UniProt Q92794, A567V)
- Construct: encoding amino acid residues 507 to 778 (Uniprot Q92794-1) of human KAT6A; made in house; host or cells: E. coli BL21 DE3
- Sequence (Q92794 507-778 A567V limits assumed): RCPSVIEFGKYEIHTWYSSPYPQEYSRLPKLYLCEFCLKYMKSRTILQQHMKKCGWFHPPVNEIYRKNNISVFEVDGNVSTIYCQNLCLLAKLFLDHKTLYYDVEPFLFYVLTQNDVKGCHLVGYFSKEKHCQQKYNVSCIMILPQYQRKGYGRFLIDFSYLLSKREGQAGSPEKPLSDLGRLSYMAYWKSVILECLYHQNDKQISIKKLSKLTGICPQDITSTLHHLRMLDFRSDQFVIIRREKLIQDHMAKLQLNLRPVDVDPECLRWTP
- test: Acetyltransferase biochemical assay (AlphaScreen), KAT6A
- applied_conditions: Table 2 (MOZ-KAT6A); 10 μM Acetyl coenzyme A, histone H3.1, 5 nM enzyme
Give just the number in µM; leave the unit off.

compound	system	IC50 [µM]
CCOC(=O)NC(CNC(=O)C1=Nc2ccccc2S(=O)(=O)N1)c1ccccc1 (centres unmarked)	MOZ-KAT6A (Homo sapiens, UniProt Q92794, A567V)	7.67

Exercise: GET /values?readout=IC50&item= O=C(NCC(c1ccccc1)n1cccn1)C1=Nc2ccccc2S(=O)(=O)N1 (centres unmarked)
Solution: 1.72

Exercise: Entry O=C(NCCc1ccccc1C(F)(F)F)C1=Nc2ccccc2S(=O)(=O)N1 please
Solution: 53.9

Exercise: Entry O=C(NCC(c1ccccc1F)n1cccc1)C1=Nc2ccccc2S(=O)(=O)N1 (centres unmarked) please
Solution: 5.66
